Assay: in vitro
Assay type: cell-based, Chinese hamster
Details: hamster, cho auxb1 cells
Where a name gives a salt, the structure may show the parent alone.
propertyLabel: viability at 96 h, 1 µM (%)
Form entry: value (%) — number only.

Below: 5 compounds and their reported viability at 96 h, 1 µM.
{"columns": ["compound", "readoutUnits", "obsValue"],
 "data": [
  ["Brc1ccc2c(c1)/C(=C/CCN1CCCC1)c1ccccc1CO2", "%", 83],
  ["Brc1ccc2c(c1)/C(=C/CCN1CCCC1)c1cc(Br)ccc1OC2", "%", 100],
  ["C(/CN1CCCC1)=C1\\c2ccccc2COc2ccccc21 [(H), hydrochloride]", "%", 100],
  ["CN(C)CC/C=C1/c2cc(Br)ccc2COc2ccccc21", "%", 100],
  ["Brc1cccc2c1OCc1ccccc1C2=CCN1CCCC1", "%", 100]
]}

Please give the documented viability at 96 h, 1 µM of CN(C)CC/C=C1/c2ccccc2COc2ccc(F)cc21
97

Give recorded viability at 96 h, 1 µM. CN(C)CC/C=C1/c2ccccc2COc2cc(Br)ccc21 [(E)]
100
